Values from ChEMBL document CHEMBL3045592

system: Abutilon theophrasti; experiment: Post-emergence herbicidal activity against Abutilon theophrasti (velvetleaf) assessed as growth inhibition at 150 ai g/ha after 20 days by green house test; type: functional
Answer f if growth inhibition (GI) is under 90%, and t if it is 90% or more.

O=C(O)COc1ccc(Cl)cc1Cl [2,4-DICHLOROPHENOXYACETIC ACID] = t
COP(=O)(OC)C(C)OC(=O)COc1ccc(Cl)cc1Cl (stereo not drawn) [CLACYFOS] = t
COP(=O)(COC(=O)COc1ccc(Cl)cc1Cl)OC = t
COP(=O)(OC)C(C)OC(=O)COc1ccc(Cl)cc1C (stereo not drawn) = f
COP(=O)(COC(=O)COc1cccc(C(F)(F)F)c1)OC = f

Item CCOP(=O)(OCC)C(C)OC(=O)COc1ccc(Cl)cc1Cl (stereo not drawn) with growth inhibition (GI) of 90% or above?
t

* * *

system: Chenopodium album; assay: Post-emergence herbicidal activity against Chenopodium album assessed as growth inhibition at 75 ai g/ha after 20 days by green house test; format: functional
Answer Not satisfied if growth inhibition (GI) is under 60%, and Satisfied if it is 60% or more.

COP(=O)(OC)C(C)OC(=O)COc1ccc(Cl)cc1Cl (configuration not stated) [CLACYFOS] = Satisfied
COP(=O)(OC)C(OC(=O)COc1ccc(Cl)cc1C)c1cccc([N+](=O)[O-])c1 (configuration not stated) = Not satisfied

Item CCOP(=O)(OCC)C(C)OC(=O)COc1ccc(Cl)cc1Cl (configuration not stated) with growth inhibition (GI) of 60% or above?
Satisfied

Now consider COP(=O)(COC(=O)COc1ccc(Cl)cc1Cl)OC .
Satisfied

Now consider O=C(O)COc1ccc(Cl)cc1Cl [2,4-DICHLOROPHENOXYACETIC ACID] .
Satisfied

Now consider COP(=O)(OC)C(OC(=O)COc1ccc(Cl)cc1Cl)c1ccccc1 (configuration not stated) .
Satisfied

Now consider COP(=O)(COC(=O)COc1cccc(C(F)(F)F)c1)OC .
Not satisfied

* * *

test system: Medicago sativa; assay: Post-emergence herbicidal activity against Medicago sativa (alfalfa) assessed as growth inhibition at 1500 ai g/ha after 20 days by green house test; type: functional
METRIC: growth inhibition (GI) (%)
Answers are plain numbers, in %.

COP(=O)(OC)C(OC(=O)COc1cccc(C)c1C)c1ccccc1 (stereo unspecified) = 50
CCC(OC(=O)COc1ccc(Cl)cc1Cl)P(=O)(OC)OC (stereo unspecified) = 90
COP(=O)(COC(=O)COc1cccc(C(F)(F)F)c1)OC = 90
COP(=O)(OC)C(C)OC(=O)COc1ccc(Cl)cc1C (stereo unspecified) = 50
COP(=O)(OC)C(C)OC(=O)COc1ccc(C)cc1 (stereo unspecified) = 50

// for each compound in input: emit growth inhibition (GI)
1. COP(=O)(OC)C(OC(=O)COc1ccc(F)cc1Cl)c1ccccc1O (stereo unspecified)
2. COP(=O)(OC)C(OC(=O)COc1ccc(Cl)cc1Cl)C(Cl)(Cl)Cl (stereo unspecified)

90
50

// lookup growth inhibition (GI) for COP(=O)(OC)C(C)OC(=O)COc1ccc(Cl)c(C)c1 (stereo unspecified)
50

* * *

Assign growth inhibition (GI) to each entry below.
tested on: Setaria viridis; assay: Post-emergence herbicidal activity against Setaria viridis (green foxtail) assessed as growth inhibition at 150 ai g/ha after 20 days by green house test; assay type: functional
Answers are plain numbers, in %.

Some entries whose results are on file:
CCOP(=O)(OCC)C(C)OC(=O)COc1ccc(Cl)cc1Cl (stereo not drawn) = 0
COP(=O)(COC(=O)COc1cccc(C(F)(F)F)c1)OC = 0

// below: growth inhibition (GI) requested for another compound
// lookup growth inhibition (GI) for COP(=O)(OC)C(C)OC(=O)COc1ccc(Cl)cc1Cl (stereo not drawn)
0
